Data provenance: patent US8846639B2

assayNotes: Liver transaminase (ALT) levels in serum (Example 14);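 note: ALT reported in IU/L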
Assay type: in vivo, mice
conditions: 32 mg/kg, serum, saline = 24
Catalogue of ALT levels readings, one per entry.
Hi! Could you send only the number? It should be in IU/L, unit omitted.

Past entries and their recorded results:
{"substance": "CSUSTAGCACTGGCCSUS [ISIS 392749]", "propertyMeasured": "ALT levels", "numericReadout": 14}
{"substance": "^MeCSTSTAGCACTGGC^MeCSTS [ISIS 411847]", "propertyMeasured": "ALT levels", "numericReadout": 16}
{"substance": "^MeC1T1TAGCACTGGC^MeC1T1 [ISIS 392063]", "propertyMeasured": "ALT levels", "numericReadout": 20}

For the next question, use this substance.
Q: Query: ALT levels; subject: C1U1TAGCACTGGCC1U1 [ISIS 392745]
Result: 13

* * *

Test system: PTEN mRNA
assayNotes: PTEN mRNA levels in liver, real-time PCR (Example 14 in vivo study)
Set-up: species or system mice
conditions: estimated, Graphpad Prism; dose at which 50% mRNA reduction is observed
propertyMeasured: ED50 (mg/kg)
Hi! Could you send only the number? It should be in mg/kg, unit omitted.

Past entries and their recorded results:
{"substance": "^MeCSTSTAGCACTGGC^MeCSTS [ISIS 411847]", "measurementUnit": "mg/kg", "ED50": 12}
{"substance": "^MeC1T1TAGCACTGGC^MeC1T1 [ISIS 392063]", "measurementUnit": "mg/kg", "ED50": 8}
{"substance": "C1U1TAGCACTGGCC1U1 [ISIS 392745]", "measurementUnit": "mg/kg", "ED50": 9}

For the next question, use this substance.
Q: Query: ED50; subject: CSUSTAGCACTGGCCSUS [ISIS 392749]
Result: 15
